Each record here notes measured pIC50.
Tested target: P2Y1 receptor (Homo sapiens, UniProt P47900)
Construct: expressed in transfected cells
Sequence (P47900 whole entry): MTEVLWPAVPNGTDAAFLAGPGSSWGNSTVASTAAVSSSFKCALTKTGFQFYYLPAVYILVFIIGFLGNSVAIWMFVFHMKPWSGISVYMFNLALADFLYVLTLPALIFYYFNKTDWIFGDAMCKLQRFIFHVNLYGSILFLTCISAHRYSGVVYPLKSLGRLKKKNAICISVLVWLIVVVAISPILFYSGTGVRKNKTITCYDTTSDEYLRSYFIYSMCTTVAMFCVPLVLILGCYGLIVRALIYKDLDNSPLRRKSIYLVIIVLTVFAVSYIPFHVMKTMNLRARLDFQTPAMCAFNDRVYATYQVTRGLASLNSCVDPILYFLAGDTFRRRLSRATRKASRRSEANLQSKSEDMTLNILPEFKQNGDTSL
Protocol details: P2Y1 IP1 accumulation HTRF assay, antagonism of agonist MRS2365 in stably transfected cells
Format: cell-based
Test parameters: racemic; 5nM MRS2365; values rounded to nearest whole number; N >= 4
Scale explanation: pIC50 corresponds to minus log10 of a concentration expressed in moles per litre.

Sample records with pIC50:
{"columns": ["Molecule", "Tested target", "pIC50"],
 "data": [
  ["CN1CCC1(c1ccccc1Oc1ncccc1NC(=O)Nc1ccc(OC(F)(F)F)cc1)C(F)F (racemic) [S35]", "P2Y1 receptor (Homo sapiens, UniProt P47900)", 6.71],
  ["O=C(Nc1ccc(OC(F)(F)F)cc1F)Nc1cccnc1Oc1ccc(F)cc1C1(C(F)(F)F)CCO1 (racemic) [S21]", "P2Y1 receptor (Homo sapiens, UniProt P47900)", 6.85],
  ["O=C(Nc1ccc(Cl)cc1F)Nc1cccnc1Oc1ccccc1C1(C(F)(F)F)CCO1 (racemic) [S29]", "P2Y1 receptor (Homo sapiens, UniProt P47900)", 6.78],
  ["COc1ccc(F)c(NC(=O)Nc2ccc(C)nc2Oc2ccccc2C2(C(F)(F)F)CCO2)c1 (racemic) [S44]", "P2Y1 receptor (Homo sapiens, UniProt P47900)", 6.46],
  ["Cc1ncc(NC(=O)Nc2ccc(Cl)cc2)c(Oc2ccccc2C2(C(F)(F)F)CCO2)n1 (racemic) [S69]", "P2Y1 receptor (Homo sapiens, UniProt P47900)", 5.85],
  ["FC(F)(F)c1nnc(Nc2cccnc2Oc2ccccc2C2(C(F)(F)F)CCO2)s1 (racemic) [S73]", "P2Y1 receptor (Homo sapiens, UniProt P47900)", 5.77]
]}

QUERY: Output pIC50 of Cc1ccc(NC(=O)Nc2ccc(F)cn2)c(Oc2ccc(F)cc2C2(C(F)(F)F)CCO2)n1 (racemic) [S54]
RESULT: 6.26

QUERY: Output pIC50 of Cc1ccc(NC(=O)Nc2ccc(Cl)c(F)c2)c(Oc2ccccc2C2(C(F)(F)F)CCO2)n1 (racemic) [S17]
RESULT: 6.94
